- measured-target: human GCG receptor (human, UniProt P47871 26-477)
- Sequence (P47871 26-477): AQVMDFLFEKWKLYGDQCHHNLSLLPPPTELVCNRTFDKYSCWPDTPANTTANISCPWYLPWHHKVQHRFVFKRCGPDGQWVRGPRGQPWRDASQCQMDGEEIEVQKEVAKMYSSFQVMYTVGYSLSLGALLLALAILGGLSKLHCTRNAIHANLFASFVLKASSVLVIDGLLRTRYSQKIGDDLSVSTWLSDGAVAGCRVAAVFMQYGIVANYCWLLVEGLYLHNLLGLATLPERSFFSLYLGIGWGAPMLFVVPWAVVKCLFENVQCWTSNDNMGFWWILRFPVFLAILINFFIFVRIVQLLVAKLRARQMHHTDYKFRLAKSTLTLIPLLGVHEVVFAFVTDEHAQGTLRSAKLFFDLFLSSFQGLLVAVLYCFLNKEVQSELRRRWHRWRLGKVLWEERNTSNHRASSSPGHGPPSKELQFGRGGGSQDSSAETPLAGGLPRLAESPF
- test-name: cell-based or functional assay
Bridge positions count the residues as written; N and C are the ends. Square brackets hold non-standard residues; d marks the D form. Ends that are not written are not given here. * marks the point of attachment. Acetyl(2-(4-imidazolyl)) = O=C(Cc1c[nH]cn1)*; Aib = CC(C)(N)C(=O)O
In vitro activity compared to native-type peptide (%), vs Glucagon listing for selected binders.
measured-attribute: In vitro activity compared to native-type peptide (%), vs Glucagon

binder="Y[Aib]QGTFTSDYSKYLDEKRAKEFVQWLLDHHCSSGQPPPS (bridge 16-20) [triple agonist of SEQ ID NO: 43]" reported_result=88.4%
binder="{Acetyl(2-(4-imidazolyl))}-[Aib]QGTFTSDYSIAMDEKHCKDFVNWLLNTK (bridge 15-19) [triple agonist of SEQ ID NO: 60]" reported_result="< 0.1%"
binder="H[Aib]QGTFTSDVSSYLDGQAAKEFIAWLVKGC [triple agonist of SEQ ID NO: 1]" reported_result="< 0.1%"
binder="[Acetyl(2-(4-imidazolyl))][Aib]QGTFTSDYSICMDEIHQKDFVNWLLNTK (bridge 16-20) [triple agonist of SEQ ID NO: 49]" reported_result="< 0.1%"
binder="H[Aib]QGTFTSDVSKYLDGQAAQEFVAWLLAGGGPSSGAPPPSC [triple agonist of SEQ ID NO: 10]" reported_result="< 0.1%"
